# Tested on: A498
# PROTOCOL DETAILS: NCI tumour cell line growth inhibition, 48 h
Active and inactive are the calls of the source. No stated cut-off is given here; in the data, active = GI50 up to about 1.1 µM and inactive = higher.
The categories you may choose from are true (1) (active), false (0) (inactive)

| COMPOUND | CLASS NAME |
| --- | --- |
| CC(=O)NC1C(OCc2ccccc2)OC(CO)C(O)C1OCC(=O)NC(C)C(=O)NC(CCC(=O)NCCCCCNc1c2ccccc2nc2cccc([N+](=O)[O-])c12)C(N)=O (centres undefined) | true (1) |
| Cc1nc2ccc(NCCN(C)C)c3c(=O)c4ccccc4n1c23 | false (0) |
| CCCCCCCCCCCCCCCC[N+](C)(C)Cc1ccc(F)cc1 | false (0) |
| CCOC(=O)/C=C(\C(=O)OCC)n1ccc(=O)n(Cc2cn(CCCCOC(C)=O)nn2)c1=O | false (0) |
| CC(=O)n1cc(CC(C)O)c(=O)[nH]c1=O (centres undefined) | false (0) |

Req: Call for entry `c1ccc(-c2nnc(-c3ccccn3)c3c2C[C@@H]2C[C@@H]4Cc5c(-c6ccccn6)nnc(-c6ccccn6)c5[C@@H]4[C@H]32)nc1` :
Resp: false (0)

Req: In this assay, the call recorded for `C1CSCC2(COC2)CS1` was what?
Resp: false (0)

Req: What call does the record list for CC1OC2/C=C\CC(O)C(C)(C)C3CCC(C)C4(O3)O[B-]35OC(C(=O)OC1C2)C1(OC(CCC1C)C(C)(C)C(O)C/C=C\C1CC(OC(=O)C4O3)C(C)O1)O5 (centres undefined) ?
Resp: false (0)

Req: Would you mind telling me which call this test gave `COc1cccc(-n2nnc3c(N)nc(N)nc32)c1` ?
Resp: false (0)

---

# Tested on: M14
# PROTOCOL DETAILS: NCI tumour cell line growth inhibition, 48 h
The source made the active and inactive calls. No stated cut-off is given here; in the data, active = GI50 up to about 1.1 µM and inactive = higher.
// one of active, inactive, no free text

Worked cases, answers included:
| MOLECULE | CLASS NAME |
| --- | --- |
| Nc1cc(Cl)cc2cc(Cl)cnc12 | inactive |
| N#Cc1nc(C(CO)N(Cc2ccccc2)C(=O)O)oc1N (stereo unspecified) | inactive |
| CCOC(=O)/C=C(\C(=O)OCC)n1ccc(=O)n(Cc2cn(CCCCOC(C)=O)nn2)c1=O | inactive |
| O=C1c2c(ccc3c2CCCC3)CC12Cc1ccccc1C2 | inactive |
| O=C(Nc1ccccc1)C(=O)C(C(=O)c1ccccc1F)C1OC(=O)c2ccccc21 (stereo unspecified) | inactive |

Req: Which outcome did this test record for the molecule `COc1ccc(/C=N/NC(=O)c2ccc(O)c(CN(C)C)c2)cc1` ?
Resp: inactive

Req: So what was the verdict on `COC(=O)c1csc([C@@H](OC(=O)[C@H](C)[C@H](CCCC(C)(Cl)Cl)OC(=O)c2csc([C@H](O)CO)n2)C(C)C)n1` in this test?
Resp: inactive

Req: What classification did N=C(N)NCCCC(Nc1c2ccccc2[n+]([O-])c2ccccc12)C(=O)O (stereo unspecified) end up with in this test?
Resp: inactive

Req: Hi, sorry to bother you, what did the test record for CN1CCCC(OC(=O)c2cc3cc(CCl)ccc3oc2=O)C1 (stereo unspecified) ?
Resp: inactive

---

# Test system: M19-MEL
# PROTOCOL DETAILS: NCI tumour cell line growth inhibition, 48 h
Active and inactive are the calls of the source. No stated cut-off is given here; in the data, active = GI50 up to about 1.1 µM and inactive = higher.
The compounds listed here are annotated with their GI50.

Solved entries:
| COMPOUND | GI50 |
| --- | --- |
| Cc1ccc(C(=O)CC2=Nc3nnc(CCCCCCCc4nnc5n4C(=O)C(CC(=O)c4ccc(C)cc4)=N5)n3C2=O)cc1 | > 100 µM (inactive) |
| C=C1C(=O)OC2C1CCC(C)C1C=CC(=O)C12C (stereo unspecified) | 3.36 µM (inactive) |
| Cc1c(CNc2ccc(Cl)c(C(=O)NC(CC(=O)O)C(=O)O)c2)ccc2nc(N)nc(N)c12 (stereo unspecified) | 13.7 µM (inactive) |
| CC(C)=CC(=O)C/C(=N\NC(N)=S)C(=O)Nc1ccc(Cl)cc1 | > 100 µM (inactive) |

Let us examine a further case.
Req: What value of GI50 has been reported for the following compound? COc1ccc(C2Oc3cc(OC)c(O)cc3[C@@H]2C)cc1 (stereo partly specified)
Resp: > 10 µM (inactive)

---

# Tested on: BT-549
# PROTOCOL DETAILS: NCI tumour cell line growth inhibition, 48 h
The source made the active and inactive calls. Cut-off read from the data, not from the text of the source: active = GI50 up to about 1.1 µM and inactive = higher.
Classes to choose from: active, inactive

Reference set (8 entries):
| MOLECULE | CLASS NAME |
| --- | --- |
| Cc1c(-c2ccccc2)[nH]c2cn[nH]c(=O)c12 | inactive |
| O=C(O)CCc1nc2cc3ccccc3cc2[nH]c1=O | inactive |
| COc1ccccc1NC(=S)Nc1cccc(C)n1 | inactive |
| CC(C)(C)n1c(=O)n(C(=O)C(Cl)(Cl)Cl)n(C(=O)C(Cl)(Cl)Cl)c1=O | inactive |
| Cc1ccc(OCC2OC(C#N)C(Oc3ccc(C)cc3)C2Oc2ccc(C)cc2)cc1 (configuration not stated) | inactive |
| CCCOP(=O)(OCCC)OC(C(F)(F)F)C(F)(F)F | inactive |
| C=CCCC(=O)CC(O)(C(F)(F)F)C(F)(F)F | inactive |
| CCCCC(C#N)(OP1(=O)OC(c2ccccc2)C(C)N1C)c1ccccc1 (configuration not stated) | inactive |

Req: Entry COC(=O)C1Cc2ccc(C)cc2C1=O (configuration not stated) : call = ?
Resp: inactive

Req: Call for entry CC1OC2/C=C\CC(O)C(C)(C)C3CCC(C)C4(O3)O[B-]35OC(C(=O)OC1C2)C1(OC(CCC1C)C(C)(C)C(O)C/C=C\C1CC(OC(=O)C4O3)C(C)O1)O5 (configuration not stated) :
Resp: inactive

Req: Which result was noted for this molecule in the test: `Nc1ccc2c(c1)S(=O)(=O)c1cc(O)ccc1O2`
Resp: inactive

---

# Test system: HT-29
# PROTOCOL DETAILS: NCI tumour cell line growth inhibition, 48 h
Calls of active or inactive are those of the source. Rule as the data show it: active = GI50 up to about 1.1 µM and inactive = higher.
MEASURED ATTRIBUTE: GI50

These solved cases illustrate the format of a correct answer.
| MOLECULE | READING |
| --- | --- |
| O=Cc1cn(C(=O)c2ccccc2)c2ccccc12 | 71.3 µM (inactive) |
| Cc1ccc(S(=O)(=O)NC(=O)NCCc2c[nH]cn2)cc1 | > 100 µM (inactive) |
| Cn1c(=O)c2c(no[n+]2[O-])n(C)c1=O | 31.2 µM (inactive) |
| COC1=CC2(C=CC1=O)CCNC1=C2C(=O)c2nc[nH]c2C1=O (centres undefined) | > 100 µM (inactive) |
| C1CSCC2(COC2)CS1 | > 100 µM (inactive) |

Req: Request the reported GI50 associated with `COc1c(C)c(C/C=C(\C)CC/C=C(\C)CC/C=C(\C)CCC=C(C)C)c(OC)c(OC)c1OC`
Resp: > 100 µM (inactive)

Req: I would be grateful if you could share the reported GI50 for `O=C1c2ccccc2-c2c1c1ccccc1c(=O)n2-c1ccccc1` .
Resp: > 31.5 µM (inactive)

Req: For `CC1=C(C(=O)NNC(=O)C(N)=O)CC(C(=O)NNC(=O)C(N)=O)=C(C)N1` , what is its reported GI50?
Resp: > 100 µM (inactive)

Req: Which GI50 is listed for `COc1cccc(-n2nnc3c(N)nc(N)nc32)c1` ?
Resp: > 100 µM (inactive)

Req: # lookup: GI50 of CN(C)CCCOC(=O)C(O)(Cc1ccccc1)C1CC1 (centres undefined)
Resp: > 100 µM (inactive)

Req: Sample `COc1ccc(OC)c2sc(N3C(=O)/C(=C/c4ccc(Cl)cc4)N=C3c3ccccc3)nc12` — what was its GI50?
Resp: > 100 µM (inactive)

Req: Requested read-out: GI50. Entry: C/C=C1\CC2C(=O)CCC2C2c3ccccc3OC12 (centres undefined)
Resp: > 100 µM (inactive)

Req: Fill blank: measured GI50 of the molecule C=C(NC(=O)C(=C)NC(=O)c1csc(C2=NC3c4csc(n4)C4NC(=O)c5csc(n5)C(C(C)(O)C(C)O)NC(=O)C5CSC(=N5)/C(=C/C)NC(=O)C(C(C)O)NC(=O)c5csc(n5)C3(CC2)NC(=O)C(C)NC(=O)C(=C)NC(=O)C(=C)NC(=O)C(C(C)C)NC2C=Cc3c(C(C)O)cc(nc3C2O)C(=O)OC4C)n1)C(N)=O (centres undefined) is ____.
Resp: 1.32 µM (inactive)

Req: If you can, please state the reported GI50 value of CC(C)(C)[Si](C)(C)OCC1OC(n2cnc3c(N)ncnc32)C2OC(=S)OC12 (centres undefined) .
Resp: 29.4 µM (inactive)

---

# System: NCI/ADR-RES
# PROTOCOL DETAILS: NCI tumour cell line growth inhibition, 48 h
Active and inactive are the calls of the source. No stated cut-off is given here; in the data, active = GI50 up to about 1.1 µM and inactive = higher.
MEASURED ATTRIBUTE: GI50

Field: example entries. Status: answers known.
| COMPOUND | READING |
| --- | --- |
| Cc1ccc(S(=O)(=O)NC(=O)NCCc2c[nH]cn2)cc1 | > 100 µM (inactive) |
| N#Cc1nc(C(CO)N(Cc2ccccc2)C(=O)O)oc1N (configuration not stated) | > 100 µM (inactive) |
| CCCCOC(=O)C(=O)C(CC(CC)C(=O)c1ccccc1)C(=O)C=C(C)C (configuration not stated) | > 100 µM (inactive) |
| O=c1n(-c2ccccc2)c(=O)n2n1C1C=CC2CCCCCC1 | > 100 µM (inactive) |
| COC(=O)c1ccc(C)cc1C1CN=NC12Cc1c(C)cccc1C2=O (configuration not stated) | 20.3 µM (inactive) |

Req: I'm curious: which GI50 was measured for `Cc1ccc(C(=O)c2[nH]c(Nc3cc(C)ccn3)c(C(=S)Nc3ccccc3)c2N)cc1` tested on NCI/ADR-RES?
Resp: > 100 µM (inactive)

Req: Entry `COc1cccc(-n2nnc3c(N)nc(N)nc32)c1` , system NCI/ADR-RES: what GI50 was measured?
Resp: > 100 µM (inactive)

Req: Identify the measured GI50 of `Nc1ccc(-c2cssc2=S)cc1` for NCI/ADR-RES.
Resp: 41.9 µM (inactive)

Req: // lookup GI50 | system=NCI/ADR-RES | key= `Nc1c(C(=O)c2ccccc2)nnc2ccccc12`
Resp: 21.5 µM (inactive)

Req: // fetch NCI/ADR-RES GI50 for `CSc1cc(N)ccc1/N=N/c1ccc(S(N)(=O)=O)cc1`
Resp: 29.6 µM (inactive)

Req: What reported GI50 corresponds to `S=C(Nc1cc(Cl)c(Cl)cc1Cl)SCc1ccccc1` on NCI/ADR-RES?
Resp: 24.9 µM (inactive)

Req: Form entry - test system: NCI/ADR-RES; read-out: GI50; compound: `[O-][N+]1(CC[N+]2([O-])CCCCC2)CCCCC1`
Resp: > 100 µM (inactive)
